- targetOfAssay: T1, HPV11 L1 protein (human papillomavirus type 11, UniProt P04012 1-501)
- T1 construct: Full-length HPV11 L1 DNA amplified from pVL11L1
- T1 sequence: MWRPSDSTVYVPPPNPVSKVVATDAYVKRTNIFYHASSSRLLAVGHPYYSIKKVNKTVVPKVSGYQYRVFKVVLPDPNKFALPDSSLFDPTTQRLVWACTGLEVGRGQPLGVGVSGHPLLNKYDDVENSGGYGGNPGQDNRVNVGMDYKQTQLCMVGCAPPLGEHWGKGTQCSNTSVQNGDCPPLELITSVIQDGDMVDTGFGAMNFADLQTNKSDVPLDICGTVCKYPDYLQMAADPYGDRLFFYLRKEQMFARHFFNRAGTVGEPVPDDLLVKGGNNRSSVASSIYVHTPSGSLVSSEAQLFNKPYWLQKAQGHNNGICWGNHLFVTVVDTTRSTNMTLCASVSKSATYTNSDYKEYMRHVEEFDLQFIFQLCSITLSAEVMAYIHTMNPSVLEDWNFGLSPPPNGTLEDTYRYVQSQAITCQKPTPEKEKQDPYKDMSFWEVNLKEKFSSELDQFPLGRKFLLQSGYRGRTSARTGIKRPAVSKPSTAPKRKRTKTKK
- protocol: co-expression in E. coli, glutathione sepharose eluate, SDS-PAGE
recordedMetric: binding result

Kindly note the recorded binding result for HPV11 GST-L2 fusion protein, L2 amino acids 396-455 (other, also called pXA/BN-HPV11L2/396-455; not shown: glutathione-S-transferase (GST) fusion partner from vector pXA/BN (multiple cloning site of pGEX-4T-2); thrombin-cleavab) SGPDITFPTASMGTPFSPVTPALPTGPVFITGSDFYLHPTWYFARRRRKRIPLFFTDVAA , which is binds

Kindly note the recorded binding result for HPV11 GST-L2 fusion protein, L2 amino acids 313-400 (other, also called pXA/BN-HPV11L2/313-400; not shown: glutathione-S-transferase (GST) fusion partner from vector pXA/BN (multiple cloning site of pGEX-4T-2); thrombin-cleavab) GARIHYFQDISPVTQAAEEIELHPLVAAENDTFDIYAEPFDPIPDPVQHSVTQSYLTSTPNTLSQSWGNTTVPLSIPSDWFVQSGPDI , which is no binding

Kindly note the recorded binding result for HPV11 GST-L2 fusion protein, L2 amino acids 1-309 (other, also called pXA/BN-HPV11L2/1-309; not shown: glutathione-S-transferase (GST) fusion partner from vector pXA/BN (multiple cloning site of pGEX-4T-2); thrombin-cleavab) MKPRARRRKRASATQLYQTCKATGTCPPDVIPKVEHTTIADQILKWGSLGVFFGGLGIGTGAGSGGRAGYIPLGSSPKPAITGGPAARPPVLVEPVAPSDPSIVSLIEESAIINAGAPEVVPPTQGGFTITSSESTTPAILDVSVTNHTTTSVFQNPLFTEPSVIQPQPPVEASGHILISAPTITSQHVEDIPLDTFVVSSSDSGPTSSTPLPRAFPRPRVGLYSRALQQVQVTDPAFLSTPQRLVTYDNPVYEGEDVSLQFTHESIHNAPDEAFMDIIRLHRPAITSRRGLVRFSRIGQRGSMYTRSG , which is no binding
